These data points were gathered from paper PMC2635096.

Listed below: Kd values for each entry.
# assay_target: NP1 (wild-type nitrophorin 1) (Rhodnius prolixus)
# Sequence (Q26239 24-207): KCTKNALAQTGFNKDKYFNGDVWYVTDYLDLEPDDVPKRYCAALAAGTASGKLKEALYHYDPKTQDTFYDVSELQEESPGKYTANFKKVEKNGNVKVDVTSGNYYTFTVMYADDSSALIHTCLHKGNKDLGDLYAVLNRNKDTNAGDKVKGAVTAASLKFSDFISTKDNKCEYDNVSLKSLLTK
# assay_text: UV/Vis ligand titration, equilibrium binding constants
# experimental_conditions: read-out: Dissociation constant (Kd) of ligand complex of NP1; 25°C; PBS buffer (50mM Na-phosphate, 100 mM NaCl, pH 7.4); UV/Vis titration
State just the number; it will be interpreted in nM.

{"mol_smiles": "c1c[nH]cn1", "Kd (nM)": 255}

Now let's try a different one.
(Q) Write down Kd measured for item `CCCCn1ccnc1`
(A) 52

* * *

# assay_target: NP1 (wild-type nitrophorin 1) (Rhodnius prolixus)
# assay_text: UV/Vis ligand titration, equilibrium binding constants
reported_property: Kd (nM)
State just the number; it will be interpreted in nM.

(Q) Write down Kd measured for item Cc1c[nH]cn1 [4-Methylimidazole]
(A) 182

* * *

# assay_target: NP1 (wild-type nitrophorin 1) (Rhodnius prolixus)
# assay_text: UV/Vis ligand titration, equilibrium binding constants
# experimental_conditions: read-out: Dissociation constant (Kd) of ligand complex of NP1; 25°C; PBS buffer (50mM Na-phosphate, 100 mM NaCl, pH 7.4); UV/Vis titration; listed as imidazole
reported_property: pKd
Scale: negative log10 of molar concentration, which is what pKd denotes.

(Q) Write down pKd measured for item c1c[nH]cn1 [Imidazole]
(A) 6.60

* * *

# assay_target: H60C_NP1 (His-60 to Cys-60 mutant of nitrophorin 1) (Rhodnius prolixus, UniProt Q26239, H82C)
# Sequence (Q26239 24-207 H82C): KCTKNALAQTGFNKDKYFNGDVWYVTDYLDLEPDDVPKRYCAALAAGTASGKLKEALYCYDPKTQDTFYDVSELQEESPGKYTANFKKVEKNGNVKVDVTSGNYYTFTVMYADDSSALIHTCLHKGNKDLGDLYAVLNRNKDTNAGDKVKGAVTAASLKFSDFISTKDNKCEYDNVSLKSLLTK
# assay_text: biochemical
reported_property: Kd (µM)
State just the number; it will be interpreted in µM.

(Q) Write down Kd measured for item Cc1c[nH]cn1 [4-Methylimidazole]
(A) 560
